Experiment: ATG_TCF_b_cat_CIS: Attagene CIS-FACTORIAL HepG2 Assay for human T-Cell-Factor with beta-catenin (TCF/b-cat) (AID 2282965)
Conditions: HepG2 TCF/beta-catenin cis-reporter transcription, actives raise or lower the signal
Description: ATG_CIS is a cell-based, multiplexed-readout assay that uses HepG2, a human liver cell line, with measurements taken at 24 hours after chemical dosing in a 24-well plate.ATG_TCF_b_cat_CIS is one of 52 assay component(s) measured or calculated from the ATG_CIS assay. […] This assay endpoint, ATG_TCF_b_cat_CIS, was analyzed with bidirectional fitting relative to DMSO as the negative control and baseline of activity. […]
Calls of active or inactive are those of the source. How the source made its calls: active means hit-call score of the fitted dose curve at least 0.9, where 1 is the maximum; inactive means score below 0.9.

>  <smi>
O=C1OC2(c3ccccc31)c1cc(I)c(O)c(I)c1Oc1c2cc(I)c(O)c1I

>  <outcome>
inactive

$$$$
>  <smi>
C=CC(=O)OCCC(F)(F)C(F)(F)C(F)(F)C(F)(F)C(F)(F)C(F)(F)F

>  <outcome>
inactive

$$$$
>  <smi>
O=S(=O)(O)c1ccc2cc(O)ccc2c1

>  <outcome>
inactive

$$$$
